Kindly state pEC50 for each of the entries shown.
Molecular target: CFTR G551D mutant (Homo sapiens, UniProt P13569, G551D)
Sequence (P13569 whole entry G551D): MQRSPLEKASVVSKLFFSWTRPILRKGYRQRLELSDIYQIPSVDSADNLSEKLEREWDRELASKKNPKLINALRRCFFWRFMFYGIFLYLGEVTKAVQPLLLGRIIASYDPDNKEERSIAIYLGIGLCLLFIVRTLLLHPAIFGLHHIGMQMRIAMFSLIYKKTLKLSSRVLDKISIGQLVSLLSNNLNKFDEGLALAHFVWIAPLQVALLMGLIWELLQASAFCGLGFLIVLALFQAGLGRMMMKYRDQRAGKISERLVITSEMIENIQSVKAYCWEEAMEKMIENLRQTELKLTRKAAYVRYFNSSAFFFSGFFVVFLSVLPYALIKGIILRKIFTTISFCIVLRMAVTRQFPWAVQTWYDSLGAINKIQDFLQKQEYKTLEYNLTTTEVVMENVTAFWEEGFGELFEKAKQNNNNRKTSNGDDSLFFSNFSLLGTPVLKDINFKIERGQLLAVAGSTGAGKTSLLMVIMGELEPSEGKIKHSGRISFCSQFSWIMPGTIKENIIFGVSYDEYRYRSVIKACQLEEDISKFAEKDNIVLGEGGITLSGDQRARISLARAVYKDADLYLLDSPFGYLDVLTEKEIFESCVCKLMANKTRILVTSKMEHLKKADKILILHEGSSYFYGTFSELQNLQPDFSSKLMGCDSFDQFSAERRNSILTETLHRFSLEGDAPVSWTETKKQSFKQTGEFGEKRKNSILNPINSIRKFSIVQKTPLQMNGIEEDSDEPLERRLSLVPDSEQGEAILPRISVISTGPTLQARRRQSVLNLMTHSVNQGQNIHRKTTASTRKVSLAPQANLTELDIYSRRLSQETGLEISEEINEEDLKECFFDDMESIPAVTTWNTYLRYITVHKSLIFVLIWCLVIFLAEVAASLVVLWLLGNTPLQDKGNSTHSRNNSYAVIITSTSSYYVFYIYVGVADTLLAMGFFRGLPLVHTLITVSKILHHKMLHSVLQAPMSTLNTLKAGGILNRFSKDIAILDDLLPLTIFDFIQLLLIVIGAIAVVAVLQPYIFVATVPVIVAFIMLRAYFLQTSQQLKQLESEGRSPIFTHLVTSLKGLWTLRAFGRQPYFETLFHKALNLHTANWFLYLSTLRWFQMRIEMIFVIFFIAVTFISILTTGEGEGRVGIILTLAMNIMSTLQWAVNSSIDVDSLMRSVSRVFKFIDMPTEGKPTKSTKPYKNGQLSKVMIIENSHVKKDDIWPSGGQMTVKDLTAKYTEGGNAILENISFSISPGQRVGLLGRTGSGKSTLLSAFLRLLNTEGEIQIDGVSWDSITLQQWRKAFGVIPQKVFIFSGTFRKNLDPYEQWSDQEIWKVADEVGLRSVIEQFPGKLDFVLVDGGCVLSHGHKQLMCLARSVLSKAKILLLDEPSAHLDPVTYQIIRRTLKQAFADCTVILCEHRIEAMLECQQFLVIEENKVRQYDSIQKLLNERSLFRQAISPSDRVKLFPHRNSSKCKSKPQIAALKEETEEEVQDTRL
Test: YFP-halide influx assay for the CFTR-G551D mutation (HEK293 cells)
Conditions: forskolin 10.67 μM
Quick note: pEC50 values are minus log10 of concentrations in mol/L.

QUERY: Please give the measured pEC50 for this compound: `COC[C@H](O)CNC(=O)c1ncc(S(=O)(=O)c2ccccc2OC(F)(F)F)cc1N`
RESULT: 6.37

QUERY: Please give the measured pEC50 for this compound: Nc1cc(S(=O)(=O)c2ccc(OC(F)(F)F)cc2)cnc1C(=O)NC1CCOC1 (centres unmarked)
RESULT: 5.73

QUERY: Please give the measured pEC50 for this compound: Nc1cc(S(=O)(=O)c2ccc(F)cc2)cnc1C(=O)NCC(O)C(F)(F)F (centres unmarked)
RESULT: 5.91

QUERY: Please give the measured pEC50 for this compound: CC(CO)CNC(=O)c1ncc(S(=O)(=O)c2ccc(OC(F)(F)F)cc2)cc1N (centres unmarked)
RESULT: 6.37

QUERY: Please give the measured pEC50 for this compound: `Nc1cc(S(=O)(=O)c2ccc(C(F)(F)F)cc2)cnc1C(=O)NCCOC(F)(F)F`
RESULT: 6.02

QUERY: Please give the measured pEC50 for this compound: Nc1cc(S(=O)(=O)c2ccc(OC(F)(F)F)cc2)cnc1C(=O)NCCC(O)C(F)(F)F (centres unmarked)
RESULT: 6.34

QUERY: Please give the measured pEC50 for this compound: C[C@@H]1CCCN1S(=O)(=O)c1cnc(C(=O)NCC(O)C(F)(F)F)c(N)c1 (some centres unmarked)
RESULT: 5.87

====

Biological target: CFTR-G1349D (Homo sapiens, UniProt P13569, G1349D)
Construct: expressed in transfected cells
Sequence (P13569 whole entry G1349D): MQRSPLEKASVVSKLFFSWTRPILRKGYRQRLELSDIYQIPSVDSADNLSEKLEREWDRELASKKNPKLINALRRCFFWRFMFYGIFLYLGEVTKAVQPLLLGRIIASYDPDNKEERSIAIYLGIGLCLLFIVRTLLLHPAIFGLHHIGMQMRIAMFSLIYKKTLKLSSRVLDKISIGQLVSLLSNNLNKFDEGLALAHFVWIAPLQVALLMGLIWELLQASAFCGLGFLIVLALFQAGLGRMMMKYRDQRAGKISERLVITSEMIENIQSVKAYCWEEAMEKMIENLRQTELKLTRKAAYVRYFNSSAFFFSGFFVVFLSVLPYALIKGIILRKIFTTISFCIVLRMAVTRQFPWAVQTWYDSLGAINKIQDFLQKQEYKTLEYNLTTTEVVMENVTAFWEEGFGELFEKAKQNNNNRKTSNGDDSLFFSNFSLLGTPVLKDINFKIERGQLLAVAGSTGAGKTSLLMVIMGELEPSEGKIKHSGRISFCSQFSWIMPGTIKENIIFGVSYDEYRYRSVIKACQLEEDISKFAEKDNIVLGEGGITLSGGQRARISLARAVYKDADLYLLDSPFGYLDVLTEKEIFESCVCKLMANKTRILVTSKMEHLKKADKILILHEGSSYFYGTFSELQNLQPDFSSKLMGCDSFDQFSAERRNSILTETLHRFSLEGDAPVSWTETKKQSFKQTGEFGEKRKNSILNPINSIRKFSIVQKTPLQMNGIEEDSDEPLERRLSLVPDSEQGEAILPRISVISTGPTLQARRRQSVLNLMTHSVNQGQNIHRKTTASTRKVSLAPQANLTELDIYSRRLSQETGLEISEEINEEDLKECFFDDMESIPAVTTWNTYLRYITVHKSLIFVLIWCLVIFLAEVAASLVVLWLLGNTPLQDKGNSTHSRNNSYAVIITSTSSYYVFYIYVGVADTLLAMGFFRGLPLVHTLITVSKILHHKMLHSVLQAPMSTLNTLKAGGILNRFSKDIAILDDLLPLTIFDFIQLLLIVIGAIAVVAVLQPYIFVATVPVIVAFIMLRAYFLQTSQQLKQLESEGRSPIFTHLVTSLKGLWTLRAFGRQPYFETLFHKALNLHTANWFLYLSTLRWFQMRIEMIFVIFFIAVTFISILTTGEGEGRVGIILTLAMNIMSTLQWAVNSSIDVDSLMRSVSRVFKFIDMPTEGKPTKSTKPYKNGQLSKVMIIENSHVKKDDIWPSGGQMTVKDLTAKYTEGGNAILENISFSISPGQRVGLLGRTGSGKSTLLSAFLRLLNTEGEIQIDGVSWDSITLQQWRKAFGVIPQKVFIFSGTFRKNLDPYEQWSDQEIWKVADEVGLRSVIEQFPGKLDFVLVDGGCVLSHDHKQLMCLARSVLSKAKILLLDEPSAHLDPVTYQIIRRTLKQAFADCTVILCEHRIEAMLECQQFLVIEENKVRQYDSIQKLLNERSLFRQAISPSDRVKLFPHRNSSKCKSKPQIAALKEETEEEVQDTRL
Experiment: YFP-halide influx assay for the CFTR-G1349D
Assay type: cell-based
PROPERTY LABEL: % Activation (%)
Respond numerically; units are % and should not be typed.

QUERY: Please give the measured % Activation for this compound: COCC(O)CNC(=O)c1ncc(S(=O)(=O)c2ccc(OC(F)(F)F)cc2)cc1N (stereo not shown)
RESULT: 83.2

QUERY: Please give the measured % Activation for this compound: `Nc1cc(S(=O)(=O)c2ccc(C(F)(F)F)cc2)cnc1C(=O)NCC(F)(F)CO`
RESULT: 71.0

QUERY: Please give the measured % Activation for this compound: `CC(C)(O)C1CN(C(=O)c2ncc(S(=O)(=O)c3ccc(C(F)(F)F)cc3)cc2N)C1`
RESULT: 87.6

QUERY: Please give the measured % Activation for this compound: `Nc1cc(S(=O)(=O)c2ccc(C(F)(F)F)cc2)cnc1C(=O)NCCO`
RESULT: 62.9

QUERY: Please give the measured % Activation for this compound: `Nc1cc(S(=O)(=O)c2ccc(OC(F)(F)F)cc2)cnc1C(=O)Nc1cc[nH]n1`
RESULT: 79.8

QUERY: Please give the measured % Activation for this compound: Nc1cc(S(=O)(=O)c2ccc(OC(F)(F)F)cc2)cnc1C(=O)NCC(O)COCC1CC1 (stereo not shown)
RESULT: 86.8

QUERY: Please give the measured % Activation for this compound: `CC(C)(O)CNC(=O)c1ncc(S(=O)(=O)c2ccc(C(F)(F)F)cc2)cc1N`
RESULT: 90.4

QUERY: Please give the measured % Activation for this compound: `CC(C)NC(=O)CNC(=O)c1ncc(S(=O)(=O)c2ccc(OC(F)(F)F)cc2)cc1N`
RESULT: 59.6

QUERY: Please give the measured % Activation for this compound: Nc1cc(S(=O)(=O)c2ccc(OC(F)(F)F)cc2)cnc1C(=O)NCC1CCCO1 (stereo not shown)
RESULT: 63.0

QUERY: Please give the measured % Activation for this compound: CC(C)(C)C(O)CNC(=O)c1ncc(S(=O)(=O)c2ccc(OC(F)(F)F)cc2)cc1N (stereo not shown)
RESULT: 99.6

QUERY: Please give the measured % Activation for this compound: `C[C@H](O)CNC(=O)c1ncc(S(=O)(=O)c2ccc(C(F)(F)F)cc2)cc1N`
RESULT: 75.5

QUERY: Please give the measured % Activation for this compound: `CCOCC1(CNC(=O)c2ncc(S(=O)(=O)c3ccc(OC(F)(F)F)cc3)cc2N)CCC1`
RESULT: 99.5

QUERY: Please give the measured % Activation for this compound: `Nc1cc(S(=O)(=O)c2ccccc2OC(F)(F)F)cnc1C(=O)N1CC(F)(F)C1`
RESULT: 85.36

QUERY: Please give the measured % Activation for this compound: Nc1cc(S(=O)(=O)c2ccc(OC(F)(F)F)cc2)cnc1C(=O)N[C@@H]1COC[C@H]1O (racemic)
RESULT: 86.8

QUERY: Please give the measured % Activation for this compound: CC(O)(CNC(=O)c1ncc(S(=O)(=O)c2ccc(OC(F)(F)F)cc2)cc1N)C(F)(F)F (stereo not shown)
RESULT: 69.4

QUERY: Please give the measured % Activation for this compound: `Nc1cc(S(=O)(=O)c2ccc(F)cc2)cnc1C(=O)N1CC(O)(C(F)(F)F)C1`
RESULT: 72.8

====

Target: CFTR ΔF508 mutant (Homo sapiens, UniProt P13569, DEL508-508)
Construct: expressed in transfected cells; host or cells: CFBE41o- cells, adenoviral transduction
Sequence (P13569 with tags, fused parts or gaps DEL508-508): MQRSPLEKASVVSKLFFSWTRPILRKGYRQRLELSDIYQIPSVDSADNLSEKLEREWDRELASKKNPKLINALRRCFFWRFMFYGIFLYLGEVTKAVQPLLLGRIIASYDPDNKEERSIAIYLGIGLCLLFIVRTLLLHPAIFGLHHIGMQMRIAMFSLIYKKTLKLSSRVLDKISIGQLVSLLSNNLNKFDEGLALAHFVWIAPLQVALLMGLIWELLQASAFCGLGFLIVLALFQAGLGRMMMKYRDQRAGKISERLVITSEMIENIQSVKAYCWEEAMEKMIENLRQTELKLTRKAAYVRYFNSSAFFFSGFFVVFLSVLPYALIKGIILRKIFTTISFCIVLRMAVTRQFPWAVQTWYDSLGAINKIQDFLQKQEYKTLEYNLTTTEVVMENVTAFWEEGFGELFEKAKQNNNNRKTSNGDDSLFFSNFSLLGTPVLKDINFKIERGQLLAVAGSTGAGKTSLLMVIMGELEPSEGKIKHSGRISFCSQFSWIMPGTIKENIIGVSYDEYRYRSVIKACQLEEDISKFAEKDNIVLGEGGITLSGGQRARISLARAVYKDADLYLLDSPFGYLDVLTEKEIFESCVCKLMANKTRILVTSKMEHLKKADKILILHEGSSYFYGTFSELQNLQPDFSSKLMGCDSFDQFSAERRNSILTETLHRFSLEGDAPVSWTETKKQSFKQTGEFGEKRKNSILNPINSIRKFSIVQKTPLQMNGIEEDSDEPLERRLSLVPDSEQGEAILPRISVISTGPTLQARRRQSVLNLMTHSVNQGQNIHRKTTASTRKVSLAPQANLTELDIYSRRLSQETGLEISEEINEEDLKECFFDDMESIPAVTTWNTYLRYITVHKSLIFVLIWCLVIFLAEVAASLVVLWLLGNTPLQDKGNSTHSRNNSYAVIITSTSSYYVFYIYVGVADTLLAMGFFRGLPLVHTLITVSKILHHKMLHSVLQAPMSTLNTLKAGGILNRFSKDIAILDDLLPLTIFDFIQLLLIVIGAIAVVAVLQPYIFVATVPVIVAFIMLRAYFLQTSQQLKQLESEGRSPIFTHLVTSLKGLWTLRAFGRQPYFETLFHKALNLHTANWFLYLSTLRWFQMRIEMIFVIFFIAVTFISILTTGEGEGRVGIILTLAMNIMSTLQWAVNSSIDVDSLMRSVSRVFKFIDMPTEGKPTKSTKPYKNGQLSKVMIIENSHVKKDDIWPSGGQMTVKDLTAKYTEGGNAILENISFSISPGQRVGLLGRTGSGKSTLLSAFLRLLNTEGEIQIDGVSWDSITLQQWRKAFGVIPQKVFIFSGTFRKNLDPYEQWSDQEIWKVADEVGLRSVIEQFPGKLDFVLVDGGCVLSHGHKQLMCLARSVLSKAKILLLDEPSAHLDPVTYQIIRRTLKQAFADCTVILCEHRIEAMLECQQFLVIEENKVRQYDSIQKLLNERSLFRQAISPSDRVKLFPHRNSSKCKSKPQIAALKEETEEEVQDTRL
Experiment: YFP-halide influx assay for the CFTR-ΔF508 mutation (CFBE41o- cells)
Assay type: cell-based
Conditions: forskolin 10.67 μM
PROPERTY LABEL: % Activation (%)
Respond numerically; units are % and should not be typed.

QUERY: Lookup: % Activation / CFTR ΔF508 mutant (Homo sapiens, UniProt P13569, DEL508-508) / Nc1cc(S(=O)(=O)c2ccc(OC(F)(F)F)cc2)cnc1C(=O)NCCC1OCCO1 [Compound 147]
RESULT: 105.5

QUERY: Lookup: % Activation / CFTR ΔF508 mutant (Homo sapiens, UniProt P13569, DEL508-508) / CCOCC(O)CNC(=O)c1ncc(S(=O)(=O)c2ccc(OC(F)(F)F)cc2)cc1N (stereo not shown) [Compound 88]
RESULT: 96.0

QUERY: Lookup: % Activation / CFTR ΔF508 mutant (Homo sapiens, UniProt P13569, DEL508-508) / CC(C)C1(O)CN(C(=O)c2ncc(S(=O)(=O)c3ccc(C(F)(F)F)cc3)cc2N)C1 [Compound 159]
RESULT: 111.1

QUERY: Lookup: % Activation / CFTR ΔF508 mutant (Homo sapiens, UniProt P13569, DEL508-508) / COCCNC(=O)c1ncc(S(=O)(=O)c2ccc(C(F)(F)F)cc2)cc1N [Compound 202]
RESULT: 97.6

====

Molecular target: CFTR G551D mutant (Homo sapiens, UniProt P13569, G551D)
Construct: expressed in transfected cells; host or cells: HEK293 cells, reverse transfection with plasmids
Assay: YFP-halide influx assay for the CFTR-G551D mutation (HEK293 cells)
Assay type: cell-based
Conditions: forskolin 10.67 μM
Lab note: anything with % Activation at or over 70% counts as TRUE; the rest go in FALSE.

QUERY: Hello, I need to know if `Nc1cc(S(=O)(=O)c2ccc(C(F)(F)F)cc2)c(C2CC2)nc1C(=O)NCCO` has measured % Activation not below 70%. Thanks!
RESULT: TRUE

QUERY: Hello, I need to know if `CCC1(F)CN(C(=O)c2ncc(S(=O)(=O)c3ccc(OC(F)(F)F)cc3)cc2N)C1` has measured % Activation not below 70%. Thanks!
RESULT: TRUE

QUERY: Hello, I need to know if Nc1cc(S(=O)(=O)NC[C@H]2CCOC2)cnc1C(=O)NCC(O)C(F)(F)F (some centres unmarked) has measured % Activation not below 70%. Thanks!
RESULT: FALSE

QUERY: Hello, I need to know if `CC1(C)CN(C(=O)c2ncc(S(=O)(=O)c3ccc(OC(F)(F)F)cc3F)cc2N)C1` has measured % Activation not below 70%. Thanks!
RESULT: TRUE

QUERY: Hello, I need to know if `Nc1cc(S(=O)(=O)c2ccc(OC(F)(F)F)cc2F)cnc1C(=O)NC[C@@H]1CCOC1` has measured % Activation not below 70%. Thanks!
RESULT: FALSE

QUERY: Hello, I need to know if `Nc1cc(S(=O)(=O)c2ccc(OC(F)(F)F)cc2)cnc1C(=O)NCCC1CC1` has measured % Activation not below 70%. Thanks!
RESULT: FALSE

QUERY: Hello, I need to know if `CC(C)(O)CNC(=O)c1ncc(S(=O)(=O)c2ccc(OC(F)(F)F)cc2)cc1N` has measured % Activation not below 70%. Thanks!
RESULT: FALSE

====

Target: CFTR G551D mutant (Homo sapiens, UniProt P13569, G551D)
Construct: expressed in transfected cells; host or cells: HEK293 cells, reverse transfection with plasmids
Test: YFP-halide influx assay for the CFTR-G551D mutation (HEK293 cells)
Format: cell-based
Conditions: forskolin 10.67 μM
# if measured % Activation < 70%: Yes  # else: No

QUERY: Does `C[C@H](O)CNC(=O)c1ncc(S(=O)(=O)c2ccc(OC(F)(F)F)cc2)cc1N` have % Activation strictly under 70%?
RESULT: No

QUERY: Does `Nc1cc(S(=O)(=O)c2ccc(C(F)(F)F)cc2)cnc1C(=O)NC[C@@H]1CCOC1` have % Activation strictly under 70%?
RESULT: No

QUERY: Does `Nc1cc(S(=O)(=O)c2cccc(F)c2)cnc1C(=O)NC[C@@H](O)C(F)(F)F` have % Activation strictly under 70%?
RESULT: Yes

QUERY: Does `COCC1(C)CN(C(=O)c2ncc(S(=O)(=O)c3ccc(OC(F)(F)F)cc3)cc2N)C1` have % Activation strictly under 70%?
RESULT: No

QUERY: Does `Nc1cc(S(=O)(=O)c2ccc(C(F)(F)F)cc2)cnc1C(=O)N1CC(C(F)(F)F)C1` have % Activation strictly under 70%?
RESULT: Yes

QUERY: Does `CC(C)C1(O)CN(C(=O)c2ncc(S(=O)(=O)c3ccc(OC(F)(F)F)cc3F)cc2N)C1` have % Activation strictly under 70%?
RESULT: Yes

QUERY: Does `CC(C)C[C@H](CO)NC(=O)c1ncc(S(=O)(=O)c2ccc(OC(F)(F)F)cc2)cc1N` have % Activation strictly under 70%?
RESULT: Yes

QUERY: Does CC(C)COCC(O)CNC(=O)c1ncc(S(=O)(=O)c2ccc(OC(F)(F)F)cc2F)cc1N (centres unmarked) have % Activation strictly under 70%?
RESULT: No
